target-or-test-system: T1, LNX2_2, Q8N448
T1 sequence (Q8N448 334-432, limits assumed, looked up): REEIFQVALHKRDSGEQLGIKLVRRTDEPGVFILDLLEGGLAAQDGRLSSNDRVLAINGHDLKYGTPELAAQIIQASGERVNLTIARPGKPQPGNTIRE
experiment-description: holdup assay
Design: key: below the threshold = too weak to quantify, mostly under pKd 3.1 to 4
test-conditions: plain residues with an end cap or a label only (N-terminal biotin on a linker: ado-ado)
observable: pKd

Solved cases below.
LPHPHSTTRV [NLGN2, Q8NFZ4] = 3.51
TASPAKETSF [SLC2A7, Q6PXP3] = below the threshold
YRLAQESGLV [ABCC6, O95255] = below the threshold
TLPRKRMSSI [GPRC6A, Q5T6X5] = below the threshold
LPHGHSTTRV [NLGN4X, Q8N0W4] = 3.8

stdin: For RKPKPSSSCC [RAB9A, P51151] , what is its reported pKd?
stdout: below the threshold

stdin: For TPPAAKKSRI [BAZ1A, Q9NRL2] , what is its reported pKd?
stdout: below the threshold

stdin: For QPCFNKLFPL [LPXN, O60711] , what is its reported pKd?
stdout: below the threshold
